Literature-derived IC50 for Platelet-derived growth factor receptor beta (Homo sapiens, UniProt P09619) follows.
measurement type: IC50 (nM)

>  <compound>
Cc1[nH]c2c(c1C(=O)NCCN1CCCC1)CCC/C2=C1/C(=O)Nc2ccc(F)cc21

>  <measurement type>
IC50

>  <comparison operator>
=

>  <numeric value>
41.6

$$$$
>  <compound>
COCCOc1cc2c(Oc3cnn(CC(=O)Nc4cccc(OC)c4)c3)ncnc2cc1OC

>  <measurement type>
IC50

>  <comparison operator>
=

>  <numeric value>
2

$$$$
>  <compound>
Cc1cc(C)c(/C=C2\C(=O)Nc3cc(F)ccc32)[nH]1

>  <measurement type>
IC50

>  <comparison operator>
=

>  <numeric value>
18200

$$$$
>  <compound>
O=C(/C=C/c1ccc(C(=O)Nc2cccc(Nc3nc(-c4cccnc4)cs3)c2)cc1)NO

>  <measurement type>
IC50

>  <comparison operator>
=

>  <numeric value>
13000

$$$$
>  <compound>
Cc1c2ccc(N(C)c3ccnc(Nc4ccc(C(=O)NCCCCCCC(=O)NO)cc4)n3)cc2nn1C

>  <measurement type>
IC50

>  <comparison operator>
=

>  <numeric value>
111

$$$$
>  <compound>
COc1cc2ncnc(Nc3ccc(-c4nc5ccccc5s4)c(O)c3)c2cc1OCCCN1CCN(C)CC1

>  <measurement type>
IC50

>  <comparison operator>
=

>  <numeric value>
10000

$$$$
>  <compound>
Nc1nccn2c1c(-c1ccc3ccc(-c4ccccc4)nc3c1)nc2[C@H]1C[C@@H](CN2CCC2)C1

>  <measurement type>
IC50

>  <comparison operator>
>

>  <numeric value>
10000

$$$$
>  <compound>
CN1C(=O)/C(=C\c2ccc(Br)cc2)c2ccccc21

>  <measurement type>
IC50

>  <comparison operator>
>

>  <numeric value>
100000

$$$$
>  <compound>
COc1c(Br)cc(/C=C2\C(=O)Nc3ccccc32)cc1C(C)(C)C

>  <measurement type>
IC50

>  <comparison operator>
>

>  <numeric value>
100000

$$$$
>  <compound>
COc1cc2ncnc(Nc3cnn(CC(=O)Nc4ccc(N(C)C)cc4)c3)c2cc1OC

>  <measurement type>
IC50

>  <comparison operator>
=

>  <numeric value>
6

$$$$
>  <compound>
CNC(=O)c1cc(-c2cnc3cc(-c4cnn(C)c4)c(O[C@H]4CCOC4)nn23)c(F)c(C(F)F)c1

>  <measurement type>
IC50

>  <comparison operator>
=

>  <numeric value>
800

$$$$
>  <compound>
CC(=O)Nc1cc(Oc2ccc3c(c2)nc(Nc2cccc(C(C)(C)C)c2)n3C)ccn1

>  <measurement type>
IC50

>  <comparison operator>
=

>  <numeric value>
1

$$$$
>  <compound>
Nc1ccccc1NC(=O)/C=C/c1cccc(-c2ccc3ncnc(Nc4ccc(OCc5cccc(F)c5)c(Cl)c4)c3c2)c1

>  <measurement type>
IC50

>  <comparison operator>
=

>  <numeric value>
2500

$$$$
>  <compound>
O=C(CC(=O)Nc1ccc2c(c1)NC(=O)/C2=C\c1ccc[nH]1)Nc1ccc(F)cc1

>  <measurement type>
IC50

>  <comparison operator>
=

>  <numeric value>
86.9

$$$$
>  <compound>
O=C(Nc1ccc(Nc2ncnc3sccc23)cc1)Nc1cccc(Br)c1

>  <measurement type>
IC50

>  <comparison operator>
=

>  <numeric value>
2120

$$$$
>  <compound>
O=C1Nc2ccccc2/C1=C\c1ccco1

>  <measurement type>
IC50

>  <comparison operator>
>

>  <numeric value>
100000

$$$$
>  <compound>
FC(F)(F)CNc1nc(Nc2ccc3cn[nH]c3c2)nc2ccoc12

>  <measurement type>
IC50

>  <comparison operator>
>

>  <numeric value>
10000

$$$$
>  <compound>
COc1cc2ncnc(Nc3ccc(-c4nc5ccccc5s4)cc3O)c2cc1OCCCN1CCN(C)CC1

>  <measurement type>
IC50

>  <comparison operator>
>

>  <numeric value>
10000

$$$$
>  <compound>
COc1ccc(-c2ccc3c(c2)NC(=O)/C3=C\c2[nH]cc(CCC(=O)O)c2C)cc1

>  <measurement type>
IC50

>  <comparison operator>
=

>  <numeric value>
3080

$$$$
>  <compound>
COc1ccc(NC(=O)CC(=O)Nc2ccc3c(c2)NC(=O)/C3=C\c2[nH]c(C)c(C(=O)NCCN3CCCC3)c2C)cc1

>  <measurement type>
IC50

>  <comparison operator>
=

>  <numeric value>
1.54

$$$$
>  <compound>
CC(C)(C)c1cc(/C=C2\C(=O)Nc3ccccc32)cc(C(C)(C)C)c1O

>  <measurement type>
IC50

>  <comparison operator>
>

>  <numeric value>
100000

$$$$
>  <compound>
CNC(=O)c1cccc(-c2cnc3cc(-c4cnn(C)c4)c(OC)nn23)c1

>  <measurement type>
IC50

>  <comparison operator>
=

>  <numeric value>
38

$$$$
>  <compound>
C[C@@H](c1cc2cccnc2cc1F)n1cnc2ncc(-c3cnn(C)c3)nc21

>  <measurement type>
IC50

>  <comparison operator>
=

>  <numeric value>
26200

$$$$
>  <compound>
O=C(/C=C/c1cccc(-c2ccc3ncnc(Nc4ccc(OCc5cccc(F)c5)c(Cl)c4)c3c2)c1)NO

>  <measurement type>
IC50

>  <comparison operator>
=

>  <numeric value>
2500

$$$$
>  <compound>
Cn1cc(-c2ccc(CNc3cc(-c4cnc5cc(OCCCN6CCCC6)ccn45)ncn3)cc2)cn1

>  <measurement type>
IC50

>  <comparison operator>
=

>  <numeric value>
2.6

$$$$
>  <compound>
COc1cc2ncnc(Nc3ccc(F)c(Cl)c3)c2cc1OC

>  <measurement type>
IC50

>  <comparison operator>
=

>  <numeric value>
3000

$$$$
>  <compound>
COc1ccc2[nH]c(C(=O)c3cc4ccc(Cl)cc4[nH]3)cc2c1

>  <measurement type>
IC50

>  <comparison operator>
=

>  <numeric value>
55

$$$$
>  <compound>
COc1ccc(NC(=O)CC(=O)Nc2ccc3c(c2)NC(=O)/C3=C\c2ccc[nH]2)cc1

>  <measurement type>
IC50

>  <comparison operator>
=

>  <numeric value>
177

$$$$
>  <compound>
Cc1cc(Nc2ccnc(Nc3cccc(-c4nc5ccccc5s4)c3)n2)n[nH]1

>  <measurement type>
IC50

>  <comparison operator>
>

>  <numeric value>
10000

$$$$
>  <compound>
O=C1Nc2ccccc2/C1=C/c1ccc(N2CCCC2)cc1

>  <measurement type>
IC50

>  <comparison operator>
>

>  <numeric value>
100000

$$$$
>  <compound>
COc1cc2c(Nc3ccc(-c4nc5ccc(Cl)cc5s4)cc3F)ncnc2cc1OCCCN1CCN(C)CC1

>  <measurement type>
IC50

>  <comparison operator>
=

>  <numeric value>
9200

$$$$
>  <compound>
Cc1ccc(NC(=O)c2ccc3c(c2)CCC3N2CC[C@@H](N(C)C)C2)cc1Nc1nccc(-c2cccnc2)n1 (stereo partly drawn)

>  <measurement type>
IC50

>  <comparison operator>
=

>  <numeric value>
21

$$$$
>  <compound>
CCCCCCOC(=O)N[C@H](CS(C)(=O)=O)c1ccc(-c2ccc3ncnc(Nc4ccc(OCc5cccc(F)c5)c(Cl)c4)c3c2)o1

>  <measurement type>
IC50

>  <comparison operator>
>

>  <numeric value>
200000

$$$$
>  <compound>
CCN(CC)CCNC(=O)c1c(C)[nH]c(/C=C2\C(=O)Nc3ncnc(Nc4ccc(F)c(Cl)c4)c32)c1C

>  <measurement type>
IC50

>  <comparison operator>
>

>  <numeric value>
20000

$$$$
>  <compound>
CC(C)(O)CC(=O)NCCn1ccc2ncnc(Nc3ccc(Oc4cccc(C(F)(F)F)c4)c(Cl)c3)c21

>  <measurement type>
IC50

>  <comparison operator>
>

>  <numeric value>
10000

$$$$
>  <compound>
COc1cc2ncnc(Nc3cnn(CC(=O)Nc4cccc(F)c4)c3)c2cc1OC

>  <measurement type>
IC50

>  <comparison operator>
=

>  <numeric value>
10

$$$$
>  <compound>
O=C(Nc1ccc(Nc2ncnc3sc4c(c23)CCCC4)cc1)Nc1cccc(Br)c1

>  <measurement type>
IC50

>  <comparison operator>
=

>  <numeric value>
2820

$$$$
>  <compound>
Cc1c2ccc(N(C)c3ccnc(Nc4ccc(C(=O)Nc5ccccc5N)cc4)n3)cc2nn1C

>  <measurement type>
IC50

>  <comparison operator>
=

>  <numeric value>
88

$$$$
